Cited source for all entries: patent US7615651B2

biological target: opioid receptor mu (Homo sapiens, UniProt P35372); construct: expressed in transfected cells; experiment: GTPγ[35S] binding assay, antagonism of endorphin; assay type: biochemical; conditions: read-out: Mu functional (GTPγ[35S] binding Ki)
Sequence (P35372 whole entry): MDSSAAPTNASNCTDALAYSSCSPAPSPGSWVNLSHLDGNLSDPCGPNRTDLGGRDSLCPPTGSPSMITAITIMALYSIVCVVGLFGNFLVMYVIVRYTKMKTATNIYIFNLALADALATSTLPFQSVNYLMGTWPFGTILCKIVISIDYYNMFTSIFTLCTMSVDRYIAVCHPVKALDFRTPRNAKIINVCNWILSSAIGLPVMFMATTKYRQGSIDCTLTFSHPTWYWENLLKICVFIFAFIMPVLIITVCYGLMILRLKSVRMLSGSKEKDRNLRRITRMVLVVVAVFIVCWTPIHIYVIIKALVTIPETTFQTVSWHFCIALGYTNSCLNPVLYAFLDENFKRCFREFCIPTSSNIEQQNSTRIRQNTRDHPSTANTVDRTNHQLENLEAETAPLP
The entries below are paired with their reported Ki.
measurement.type: Ki (nM)

>>> print(df.to_string())
                                   molecule  endpoint_result
0  Cc1cc(C(N)=O)ccc1-c1ccc(CN2Cc3ccccc3C2)cc1              207
1     Cc1cc(C(N)=O)ccc1-c1ccc(CNCCC(C)C)cc1              6.2
2  NC(=O)c1cccc(-c2ccc(CNCC3CCCCO3)cc2Cl)c1 (stereo not shown)               15
3  Cc1cc(C(N)=O)ccc1-c1ccc(CNC2Cc3ccccc3C2)nc1            0.715
4  Cc1cc(C(N)=O)ccc1-c1ccc(CNC(C)(C)c2ccccc2)cc1              126
5  Cc1cc(C(N)=O)ccc1-c1ccc(CNCc2ccccc2F)cc1             4.55
6  Cc1cc(C(N)=O)ccc1-c1ccc(CNCCc2ccccc2)cc1             2.73
7  Cc1cc(CNCCC(C)C)ccc1-c1ccc(C(N)=O)cc1C.Cl [E2-01, hydrochloride salt]            0.886
8  Cc1cc(C(N)=O)ccc1-c1ccc(CNC2(c3ccccc3)CC2)cc1             1290
9   Cc1cc(C(N)=O)ccc1-c1ccc(CNCc2ccccc2)cc1             3.13
